B1: PBXIP1 (parent)
chain: LQQLRARLQGLEADCVRGPDGVCL

# Variants of: B1
# assay_name: protein stability index of a GFP-peptide fusion (GPS, HEK-293T) (PSI 1-6); higher = more stable;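 further: lentivirally expressed fusions sorted by FACS into six bins by GFP to DsRed ratio, PSI derived from sequencing read proportions per bin multiplied by bin number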
# conditions: c terminus: a fixed tail appended
Quick reference: protein stability index of the listed items.
The response must contain the number and no unit.

# variant_notation, protein stability index
rows = [
    ("L8V", 1.99),
    ("R17L", 1.98),
    ("L1K", 3.5),
    ("C23A", 2.2),
    ("L11T", 3.01),
    ("P19V", 2.65),
    ("A6R", 1.32),
]

Lab note: measured protein stability index of Q9D was 2.86

meta.source: the supplement of paper PMC10567573
